Provenance of the data: paper PMC11480844

B1: H2-Kb / Ed16-30 (parent complex)
chain 1: GEQVEQRPPHLSVREGDSAVIICTYTDPNSYYFFWYKQEPGAGLQLLMKVFSSTEINEGQGFTVLLNKKDKQLSLNLTAAHPGDSAVYFCAVSEPSSGQKLVFGQGTILKVYL
chain 2: EAAVTQSPRNKVAVTGGKVTLSCNQTNNHNNMYWYRQDTGHGLRLIHYSYGAGSTEKGDIPDGYKASRPSQENFSLILELATPSQTSVYFCAGRDTGQLYFGEGSKLTVL
chain 3: not shown
chain 4: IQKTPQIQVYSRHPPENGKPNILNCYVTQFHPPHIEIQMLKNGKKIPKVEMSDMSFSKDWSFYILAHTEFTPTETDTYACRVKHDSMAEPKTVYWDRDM
chain 5: SIINFEKL

# Variants of: B1
# method-summary: % of reporter cells activated (NFAT-GFP), raw; also: test concentration or dose not given here
measure-name: ratio to parent

> print(dat)
   variant.annotation  observed.value
1         chain 5 N4V          0.0105
2         chain 5 I2L            1.33
3         chain 5 L8P           0.836
4         chain 5 I3G           0.137
5         chain 5 I2D            1.31
6         chain 5 I3P            0.64
7         chain 5 S1P          0.0976
8         chain 5 F5R            1.19
9         chain 5 E6V          0.0227
